Target: rat A1 receptors (Rattus norvegicus, UniProt P25099)
Sequence (P25099 1-326): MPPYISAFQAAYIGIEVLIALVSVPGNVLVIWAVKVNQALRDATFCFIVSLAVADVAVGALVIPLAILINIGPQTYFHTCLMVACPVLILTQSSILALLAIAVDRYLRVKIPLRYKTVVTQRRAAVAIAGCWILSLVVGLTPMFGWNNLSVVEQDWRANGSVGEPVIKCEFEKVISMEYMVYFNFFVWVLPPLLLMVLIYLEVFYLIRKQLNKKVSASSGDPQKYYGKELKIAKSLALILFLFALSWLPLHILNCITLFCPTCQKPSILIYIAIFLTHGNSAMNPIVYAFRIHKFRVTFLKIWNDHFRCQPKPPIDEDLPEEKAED
Hi there, I'd appreciate the recorded pKi for every entry that follows.
Reminder that pKi means the negative base-10 logarithm of the concentration expressed in mol/L.

Record CCCn1c(=O)c2[nH]c(-c3ccc(OCC(=O)NN4C(=O)C(C)=C(C)C4=O)cc3)nc2n(CCC)c1=O / rat A1 receptors (Rattus norvegicus, UniProt P25099), pKi recorded as 7.95

Value sought: pKi, system rat A1 receptors (Rattus norvegicus, UniProt P25099), item CCCn1c(=O)c2[nH]c(-c3ccc(OCC(=O)NN4C(=O)C5=C(CCCC5)C4=O)cc3)nc2n(CCC)c1=O [Compound 20b] . Result: 7.21

Record CCCn1c(=O)c2[nH]c(-c3ccc(OCC(=O)NN4C(=O)C=C(c5ccccc5)C4=O)cc3)nc2n(CCC)c1=O has rat A1 receptors (Rattus norvegicus, UniProt P25099) pKi equal to 6.65

Let me check: CCCn1c(=O)c2[nH]c(-c3ccc(OCC(=O)NNC(=O)C4=C(C(=O)O)CCC4)cc3)nc2n(CCC)c1=O [Compound 19a] , system rat A1 receptors (Rattus norvegicus, UniProt P25099), measured pKi is 7.09

Summary line: CCCn1c(=O)c2[nH]c(-c3ccc(OCC(=O)NN4C(=O)C(c5ccccc5)=C(c5ccccc5)C4=O)cc3)nc2n(CCC)c1=O , rat A1 receptors (Rattus norvegicus, UniProt P25099), reported pKi = 7.02

pKi for rat A1 receptors (Rattus norvegicus, UniProt P25099) with input CCCn1c(=O)c2[nH]c(-c3ccc(OCC(=O)NNC(=O)[C@H](CC(C)C)NC(=O)OC(C)(C)C)cc3)nc2n(CCC)c1=O equals 6.71

// compound CCCn1c(=O)c2[nH]c(-c3ccc(OCC(=O)NN4C(=O)C5CC=CCC5C4=O)cc3)nc2n(CCC)c1=O (stereo not shown) [Compound 18b] , assay rat A1 receptors (Rattus norvegicus, UniProt P25099), pKi value: 7.44

====

Assignment: determine reported pKi for the given molecules.
molecular target: human A2B receptors (Homo sapiens, UniProt P29275); construct: expressed in transfected cells; host or cells: HEK-293; assay: Binding at human A2B receptors expressed in HEK-293 cells vs [3H]ZM241385; conditions: rounded values given in text; read-out: Ki at human A2B receptors
Sequence (P29275 whole entry): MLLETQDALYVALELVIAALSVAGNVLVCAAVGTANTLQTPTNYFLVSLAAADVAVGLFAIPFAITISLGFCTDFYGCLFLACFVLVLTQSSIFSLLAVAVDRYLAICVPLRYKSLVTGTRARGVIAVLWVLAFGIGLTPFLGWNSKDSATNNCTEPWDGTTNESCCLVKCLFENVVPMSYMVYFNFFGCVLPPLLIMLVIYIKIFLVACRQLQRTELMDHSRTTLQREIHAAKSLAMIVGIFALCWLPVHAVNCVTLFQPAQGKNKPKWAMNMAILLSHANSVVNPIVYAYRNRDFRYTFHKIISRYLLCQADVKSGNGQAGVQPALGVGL
pKi here: minus log base 10 of the concentration, concentration in moles per litre.

pKi recorded for this molecule, CCCn1c(=O)c2[nH]c(-c3ccc(OCC(=O)NN4C(=O)C=C(c5ccccc5)C4=O)cc3)nc2n(CCC)c1=O [Compound 16] , is 7.17

Record CCCn1c(=O)c2[nH]c(-c3ccc(OCC(=O)NNC(=O)[C@H](CCSC)NC(=O)OC(C)(C)C)cc3)nc2n(CCC)c1=O [Compound 26] , field pKi: 7.40

Sample CCCn1c(=O)c2[nH]c(-c3ccc(OCC(=O)NNC(=O)[C@H](CC(C)C)NC(=O)OC(C)(C)C)cc3)nc2n(CCC)c1=O [Compound 25] ; pKi observed: 7.32
